mass density reference
# PARTICULARS: 298.15 K; 101.33 kPa; Liquid; Vibrating tube method
REPORTED PROPERTY: mass density (kg/m3)

COMPOUND	ENDPOINT UNIT	OBSERVED VALUE
CCn1cc[n+](C)c1.O=S(=O)([N-]S(=O)(=O)C(F)(F)F)C(F)(F)F	kg/m3	1519.3
CCCCn1cc[n+](C)c1.F[B-](F)(F)F [1-butyl-3-methylimidazolium tetrafluoroborate]	kg/m3	1202.4
CCn1cc[n+](C)c1.N#CN=C=[N-] [1-ethyl-3-methylimidazolium dicyanamide]	kg/m3	1100.8
CCn1cc[n+](C)c1.F[B-](F)(F)F [1-ethyl-3-methylimidazolium tetrafluoroborate]	kg/m3	1288.8
